Where do the numbers come from? From patent US20240018121A1.

- Tested on: Aspergillus fumigatus T33439 (ATCC MYA-3626)
- Protocol Description: Fungal MIC Protocol, Aspergillus fumigatus
- Assay type: cell-based
- Assay Context: Aspergillus fumigatus, 48 h, read-out: MIC Aspergillus fumigatus 3626
Where a name gives a salt, the structure may show the parent alone.
Could you mark each record true if its MIC falls strictly under 0.2 mg/L, and false if it equals or exceeds it?

Take a look at these entries with their results.
Compound: Cn1c(-c2cc(F)c(C3=CCN(C(=N)N)CC3)c(F)c2)nnc1-c1ccc(C2=CCN(C(=N)N)CC2)cc1F [Example 85, trifluoroacetate]
Assay Target: Aspergillus fumigatus T33439 (ATCC MYA-3626)
Class Label: true
--
Compound: CC(C)(O)Cn1c(-c2ccc(C3=CCN(C(=N)N)CC3)cc2F)nnc1-c1ccc(C2=CCN(C(=N)N)CC2)cc1F [Example 74, hydrochloride]
Assay Target: Aspergillus fumigatus T33439 (ATCC MYA-3626)
Class Label: false
--
Compound: N=C(N)N1CC=C(c2ccc(-c3nnc(-c4ccc(C5=CCN(C(=N)N)CC5)cc4F)n3C(CO)CO)c(F)c2)CC1 [Example 71, hydrochloride]
Assay Target: Aspergillus fumigatus T33439 (ATCC MYA-3626)
Class Label: false

Now look at this entry.
### Prompt Problem: For the compound N=C(N)N1CC=C(c2ccc(-c3nnc(-c4ccc(C5=CCN(C(=N)N)CC5)cc4F)n3CCCO)c(F)c2)CC1 [Example 73, hydrochloride] , is MIC under 0.2 mg/L?
### Response true

====

In this section, each of the compounds is paired with its reported MIC.
- Tested on: Aspergillus fumigatus T33439 (ATCC MYA-3626)
- Protocol Description: Fungal MIC Protocol, Aspergillus fumigatus
- Type: cell-based
- Assay Context: Aspergillus fumigatus, 48 h, read-out: MIC Aspergillus fumigatus 3626
Counter-ions that a name gives are not always drawn.

The compound listed as COc1cc(-c2nnc(-c3ccc(C4=CCN(C(=N)N)CC4)c(OC)c3)n2CCO)ccc1C1=CCN(C(=N)N)CC1 [Example 76, trifluoroacetate] shows MIC equal to 0.78 µg/mL

The compound listed as N=C(N)N1CC=C(c2ccc(-c3nnc(-c4ccc(C5=CCN(C(=N)N)CC5)cc4F)n3CCO)cc2)CC1 [Example 82, hydrochloride] shows MIC equal to 0.1 µg/mL

The compound listed as COc1cc(C2=CCN(C(=N)N)CC2)ccc1-c1nnc(-c2ccc(C3=CCN(C(=N)N)CC3)cc2OC)n1CCO [Example 75, trifluoroacetate] shows MIC equal to 1.56 µg/mL

The compound listed as COCCn1c(-c2ccc(C3=CCN(C(=N)N)CC3)cc2)nnc1-c1ccc(C2=CCN(C(=N)N)CC2)cc1 [Example 67, trifluoroacetate] shows MIC equal to 0.1 µg/mL

The compound listed as Cn1c(-c2ccc(C3=CCN(C(=N)N)CC3)cc2)nnc1-c1ccc(C2=CCN(C(=N)N)CC2)cc1F [Example 78, trifluoroacetate] shows MIC equal to 0.05 µg/mL

====

- System: Mucor ramosissimus 057718 (ATCC 90286)
- Protocol Description: Fungal MIC Protocol, Mucor ramosissimus (MIC-50)
- Format: cell-based
- Assay Context: Mucor ramosissimus, ATCC90286, 48 h, read-out: MIC-50 Mucorales ramosissimus 90286
- Method: Fungal MIC Protocol: RPMI/MOPS media (Roswell Park Memorial Institute/3-morpholinopropane-1-sulfonic acid media) is prepared by dissolving 8.4 grams RPMI […] (Sigma cat #R1383), 34.52 grams MOPS buffer (Sigma cat #M3.183) and 2 […] glucose in 900 mL deionized water. The pH is adjusted to 7.0 with NaOH and filter sterilized. […] The supernatant is removed and the OD530 of a 1:100 dilution is measured. […]
Counter-ions that a name gives are not always drawn.
In this section, each of the compounds is paired with its reported MIC50.
# value in µg/mL; strip the unit string

The cases that follow already have their MIC50 on record.
Compound: N=C(N)N1CC=C(c2ccc(-c3nnc(-c4ccc(C5=CCN(C(=N)N)CC5)cc4F)n3CCOCCO)c(F)c2)CC1 [Example 77, trifluoroacetate]
Measured Metric: MIC50
Reported Measurement: 25
//
Compound: COc1cc(-c2nnc(-c3ccc(C4=CCN(C(=N)N)CC4)c(OC)c3)n2CCO)ccc1C1=CCN(C(=N)N)CC1 [Example 76, trifluoroacetate]
Measured Metric: MIC50
Reported Measurement: 25

# context switch: different compound, same MIC50
The compound listed as N=C(N)N1CC=C(c2ccc(-c3nnc(-c4ccc(C5=CCN(C(=N)N)CC5)cc4F)n3C(CO)CO)c(F)c2)CC1 [Example 71, hydrochloride] shows MIC50 equal to 25
